Attribution: ChEMBL document CHEMBL1201861

- Test system: U-266
- protocol_text: cells
- Assay type: functional, cell-based
- experimental_conditions: Homo sapiens
- Description: SANGER: Inhibition of human U-266 cell growth in a cell viability assay.
Documented IC50 across a set of compounds

[
  {
    "compound": "Cn1c(=O)n(-c2ccc(C(C)(C)C#N)cc2)c2c3cc(-c4cnc5ccccc5c4)ccc3ncc21",
    "IC50": "206 nM"
  }
]

Tell me reported IC50 for Fc1cc(-c2cc[nH]/c(=N/c3ccc(-n4cnc(N5CCOCC5)n4)cc3)n2)cc(N2CCOCC2)c1 , tested with U-266. 882 nM

Under U-266: IC50 value of COc1cc(C)c(Sc2cnc(NC(=O)c3ccc(CNC(C)C(C)(C)C)cc3)s2)cc1C(=O)N1CCN(C(C)=O)CC1 (configuration not stated) ? > 10200 nM

What is its IC50 for U-266? Entry: CC(C)=CC[C@@H](O)C1=CC(=O)c2c(O)ccc(O)c2C1=O 675 nM

Give U-266 IC50 for CC[C@]1(O)C[C@@H]2CN(CCc3c([nH]c4ccccc34)[C@@](C(=O)OC)(c3cc4c(cc3OC)N(C)[C@H]3[C@@](O)(C(=O)OC)[C@H](OC(C)=O)[C@]5(CC)C=CCN6CC[C@]43[C@@H]65)C2)C1 10.8 nM

What reported IC50 corresponds to CCNc1cc(N[C@H]2CC[C@@H](O)CC2)nc(Nc2ccc3c(ccn3Cc3ccccc3)c2)n1 on U-266? > 5120 nM

Missing value: IC50, U-266, entry Cn1cc(/C=C2\C(=O)Nc3cccnc32)c2ccccc21 . Fill in? > 2000 nM

---

The following compounds are shown together with reported IC50 values.
- Tested on: ECC10;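 also: growth inhibition of ECC10 cells, read out by a cell viability assay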
- protocol_text: cells
- Type: functional, cell-based
- experimental_conditions: Homo sapiens
- Description: SANGER: Inhibition of human ECC10 cell growth in a cell viability assay.
// note: answer is a bare numeric in nM

[
  {
    "cpd_smiles": "Cn1c(=O)n(-c2ccc(C(C)(C)C#N)cc2)c2c3cc(-c4cnc5ccccc5c4)ccc3ncc21",
    "target_or_system": "ECC10",
    "value_observed": 32
  }
]

Now take the following compound into account.
Could you tell me which IC50 is on file for CC[C@@]1(O)C(=O)OCc2c1cc1n(c2=O)Cc2cc3ccccc3nc2-1 ? 3.85

---

- Tested on: A204;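 also: growth inhibition of human A204 cells, read out with a cell viability assay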
- protocol_text: cells
- Type: functional, cell-based
- experimental_conditions: Homo sapiens
- Description: SANGER: Inhibition of human A204 cell growth in a cell viability assay.
Collected IC50 values appear next to each entry.
Your answer should be a plain number; it is taken to be in nM.

Known IC50 results, listed for orientation:
[
  {
    "cpd_smiles": "CO[C@@]12[C@H](COC(N)=O)C3=C(C(=O)C(C)=C(N)C3=O)N1C[C@@H]1N[C@@H]12",
    "target_or_system": "A204",
    "unit_abbrev": "nM",
    "value_observed": 84.2
  },
  {
    "cpd_smiles": "CC[C@@]1(O)C(=O)OCc2c1cc1n(c2=O)Cc2cc3ccccc3nc2-1",
    "target_or_system": "A204",
    "unit_abbrev": "nM",
    "value_observed": 4.52
  }
]

Read the next record carefully.
Item N#C/C(=C1/Nc2ccccc2S1)c1ccnc(NCCc2cccnc2)n1 has what recorded IC50? 7340

---

- System: ES4
- protocol_text: cells
- Type: functional, cell-based
- experimental_conditions: Homo sapiens
- Description: SANGER: Inhibition of human ES4 cell growth in a cell viability assay.
quantity_measured: IC50 (µM)
Respond numerically; units are µM and should not be typed.

[
  {
    "cpd_smiles": "CC[C@@]1(O)C(=O)OCc2c1cc1n(c2=O)Cc2cc3ccccc3nc2-1",
    "target_or_system": "ES4",
    "IC50 / µM": 0.00147
  },
  {
    "cpd_smiles": "CC(=O)c1c(C)c2cnc(Nc3ccc(N4CCNCC4)cn3)nc2n(C2CCCC2)c1=O",
    "target_or_system": "ES4",
    "IC50 / µM": 2.45
  },
  {
    "cpd_smiles": "Cn1c(=O)n(-c2ccc(C(C)(C)C#N)cc2)c2c3cc(-c4cnc5ccccc5c4)ccc3ncc21",
    "target_or_system": "ES4",
    "IC50 / µM": 0.0211
  },
  {
    "cpd_smiles": "Cc1nc(Nc2ncc(C(=O)Nc3c(C)cccc3Cl)s2)cc(N2CCN(CCO)CC2)n1",
    "target_or_system": "ES4",
    "IC50 / µM": 1.05
  }
]

// returns reported IC50 for input Fc1cc(-c2cc[nH]/c(=N/c3ccc(-n4cnc(N5CCOCC5)n4)cc3)n2)cc(N2CCOCC2)c1 1.39
